Each entry below carries its recorded %Inh.
Tested on: BMX
Conditions: concentration: 1 μM, replicates: in singlicate; n = 1
Your answer is read as %, so omit the unit and give the number.

Here is how some molecules turned out for %Inh.
Fc1cc(Cl)ccc1Nc1ccnc2cc(-c3ccc(CN4CCSCC4)o3)ccc12 ... 20
CN(c1ccc(NC(=O)Nc2cccc(Cl)c2)cc1)c1ccnc(N)n1.Cl ... 0

Enquiry: Please provide the recorded %Inh for NCCC(NC(=O)c1cc(Br)c(-c2ccnc3[nH]ccc23)s1)c1ccccc1.O=C(O)C(F)(F)F.O=C(O)C(F)(F)F (stereo not drawn) , tested on BMX.
Return: 25

Enquiry: Which %Inh is reported with BMX for this entry: CCn1cnc2c(NCc3ccccc3)ncnc21 ?
Return: 0

Enquiry: Request: %Inh, test system BMX, entry Cn1cc(-c2cnc(N)c3c(-c4ccc5c(c4)CCN5C(=O)Cc4ccccc4)csc23)cn1;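 further: KINOMEscan kinase panel screen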
Return: 57
